- assay info: Metabolic stability test: liver microsomal stability assay
- Type: in vitro ADME, mouse
- run parameters: male, pH 7.4; mouse liver microsomes 0.5 mg protein/mL, compound 1 µM, presence of NADPH; read-out: Mouse Hepatic Microsome CLh,int NADPH(+)
Positions of bridges follow the written chain, without caps; N, C: chain ends. Non-standard residues stand in square brackets, D forms with d. Residues, ends and D or L forms follow the SMILES beside them. *: point of attachment. NMeF = CN[C@@H](Cc1ccccc1)C(=O)O; NMeL = CN[C@@H](CC(C)C)C(=O)O; NMeV = CN[C@H](C(=O)O)C(C)C; NMeAbu = CC[C@H](NC)C(=O)O; NMeA = CN[C@@H](C)C(=O)O; Piperidide = C1CCN(*)CC1; Abu = CC[C@H](N)C(=O)O; Sar = CNCC(=O)O; tBu = CC(C)(C)*
readout kind: microsomal CLint at 1 µM

Find the recorded microsomal CLint at 1 µM belonging to CC[C@H]1C(=O)N(C)CC(=O)N[C@@H]([C@@H](C)O)C(=O)N(C)[C@@H](CC(C)C)C(=O)N[C@@H](CC(C)C)C(=O)N(C)[C@@H](Cc2ccccc2)C(=O)N(C)[C@@H](C(C)C)C(=O)N2CCC[C@H]2C(=O)N(C)[C@@H](C)C(=O)N(C)[C@@H](C(C)C)C(=O)N[C@H](C(=O)N2CCCCC2)CC(=O)N(C)[C@@H](CC(C)C)C(=O)N(C)[C@@H](Cc2ccccc2)C(=O)N1C [pd126] ([NMeL][NMeF][NMeAbu][Sar]T[NMeL]L[NMeF][NMeV]P[NMeA][NMeV]D-Piperidide; lactam N-13) and report it.
23.3 µL/min/mg

Find the recorded microsomal CLint at 1 µM belonging to CC[C@@H]1NC(=O)[C@H](C(C)C)N(C)C(=O)[C@H](CC(C)C)NC(=O)[C@H](CC(C)C)N(C)C(=O)[C@H]([C@@H](C)O)NC(=O)CN(C)C(=O)[C@H]([C@@H](C)CC)NC(=O)[C@H](Cc2ccccc2)N(C)C(=O)[C@H](CC(C)C)N(C)C(=O)C[C@@H](C(=O)N2CCCCC2)NC(=O)[C@H](Cc2ccccc2)N(C)C(=O)[C@H](COC(C)(C)C)NC(=O)[C@@H]2CCCN2C1=O [pd106] ([NMeL][NMeF]I[Sar]T[NMeL]L[NMeV][Abu]PS(tBu)[NMeF]D-Piperidide; lactam N-13) and report it.
32.7 µL/min/mg

This collection of values is drawn from patent EP4768499A1.
